# TEST_TARGET: full-length native BPV1 E2 trans-activator protein (bovine papillomavirus type 1 (BPV1), UniProt P03122)
# MEASUREMENT_PROTOCOL: cell-based or functional assay
ATTRIBUTE_MEASURED: Repression as % decrease in trans-activation by E2 (%)
Just the number please, in %, no unit attached.

Looking up BPV1 E2 mutant 340Y in the E2 repressor format (C-terminal 249 amino acids) (other) MAGAGRIYYSRFGDEAARFSTTGHYSVRDQDRVYAGVSSTSSDFRDRPDGVWVASEGPEGDPAGKEAEPAQPVSSLLGSPACGPIRAGLGWVRDGPRSHPYNFPAGSGGSILRSSSTPVQGTVPVDLASRQEEEEQSPDSTEEEPVTLPRRTTNDGFHLLKAGGSCFALISGTANQVKYYRFRVKKNHRHRYENCTTTWFTVADNGAERQGQAQILITFGSPSQRQDFLKHVPLPPGMNISGFTASLDF , I see its Repression as % decrease in trans-activation by E2 listed as 93.5

Looking up BPV1 E2 mutant 333V in the E2 repressor format (C-terminal 249 amino acids) (other) MAGAGRIYYSRFGDEAARFSTTGHYSVRDQDRVYAGVSSTSSDFRDRPDGVWVASEGPEGDPAGKEAEPAQPVSSLLGSPACGPIRAGLGWVRDGPRSHPYNFPAGSGGSILRSSSTPVQGTVPVDLASRQEEEEQSPDSTEEEPVTLPRRTTNDGFHLLKAGGSCFALISVTANQVKCYRFRVKKNHRHRYENCTTTWFTVADNGAERQGQAQILITFGSPSQRQDFLKHVPLPPGMNISGFTASLDF , I see its Repression as % decrease in trans-activation by E2 listed as 0

Looking up BPV1 E2 mutant 386W in the E2 repressor format (C-terminal 249 amino acids) (other) MAGAGRIYYSRFGDEAARFSTTGHYSVRDQDRVYAGVSSTSSDFRDRPDGVWVASEGPEGDPAGKEAEPAQPVSSLLGSPACGPIRAGLGWVRDGPRSHPYNFPAGSGGSILRSSSTPVQGTVPVDLASRQEEEEQSPDSTEEEPVTLPRRTTNDGFHLLKAGGSCFALISGTANQVKCYRFRVKKNHRHRYENCTTTWFTVADNGAERQGQAQILITFGSPSQWQDFLKHVPLPPGMNISGFTASLDF , I see its Repression as % decrease in trans-activation by E2 listed as 81.4

Looking up BPV1 E2 mutant 360S in the E2 repressor format (C-terminal 249 amino acids) (other) MAGAGRIYYSRFGDEAARFSTTGHYSVRDQDRVYAGVSSTSSDFRDRPDGVWVASEGPEGDPAGKEAEPAQPVSSLLGSPACGPIRAGLGWVRDGPRSHPYNFPAGSGGSILRSSSTPVQGTVPVDLASRQEEEEQSPDSTEEEPVTLPRRTTNDGFHLLKAGGSCFALISGTANQVKCYRFRVKKNHRHRYENCTTTSFTVADNGAERQGQAQILITFGSPSQRQDFLKHVPLPPGMNISGFTASLDF , I see its Repression as % decrease in trans-activation by E2 listed as 32.3

Looking up BPV1 E2 mutant 340F in the E2 repressor format (C-terminal 249 amino acids) (other) MAGAGRIYYSRFGDEAARFSTTGHYSVRDQDRVYAGVSSTSSDFRDRPDGVWVASEGPEGDPAGKEAEPAQPVSSLLGSPACGPIRAGLGWVRDGPRSHPYNFPAGSGGSILRSSSTPVQGTVPVDLASRQEEEEQSPDSTEEEPVTLPRRTTNDGFHLLKAGGSCFALISGTANQVKFYRFRVKKNHRHRYENCTTTWFTVADNGAERQGQAQILITFGSPSQRQDFLKHVPLPPGMNISGFTASLDF , I see its Repression as % decrease in trans-activation by E2 listed as 86.1

Looking up BPV1 E2 mutant 337L in the E2 repressor format (C-terminal 249 amino acids) (other) MAGAGRIYYSRFGDEAARFSTTGHYSVRDQDRVYAGVSSTSSDFRDRPDGVWVASEGPEGDPAGKEAEPAQPVSSLLGSPACGPIRAGLGWVRDGPRSHPYNFPAGSGGSILRSSSTPVQGTVPVDLASRQEEEEQSPDSTEEEPVTLPRRTTNDGFHLLKAGGSCFALISGTANLVKCYRFRVKKNHRHRYENCTTTWFTVADNGAERQGQAQILITFGSPSQRQDFLKHVPLPPGMNISGFTASLDF , I see its Repression as % decrease in trans-activation by E2 listed as 90.4

Looking up BPV1 E2 mutant 340S in the E2 repressor format (C-terminal 249 amino acids) (other) MAGAGRIYYSRFGDEAARFSTTGHYSVRDQDRVYAGVSSTSSDFRDRPDGVWVASEGPEGDPAGKEAEPAQPVSSLLGSPACGPIRAGLGWVRDGPRSHPYNFPAGSGGSILRSSSTPVQGTVPVDLASRQEEEEQSPDSTEEEPVTLPRRTTNDGFHLLKAGGSCFALISGTANQVKSYRFRVKKNHRHRYENCTTTWFTVADNGAERQGQAQILITFGSPSQRQDFLKHVPLPPGMNISGFTASLDF , I see its Repression as % decrease in trans-activation by E2 listed as 89.6

Looking up BPV1 E2 mutant 340R in the E2 repressor format (C-terminal 249 amino acids) (other) MAGAGRIYYSRFGDEAARFSTTGHYSVRDQDRVYAGVSSTSSDFRDRPDGVWVASEGPEGDPAGKEAEPAQPVSSLLGSPACGPIRAGLGWVRDGPRSHPYNFPAGSGGSILRSSSTPVQGTVPVDLASRQEEEEQSPDSTEEEPVTLPRRTTNDGFHLLKAGGSCFALISGTANQVKRYRFRVKKNHRHRYENCTTTWFTVADNGAERQGQAQILITFGSPSQRQDFLKHVPLPPGMNISGFTASLDF , I see its Repression as % decrease in trans-activation by E2 listed as 95.6

Looking up BPV1 E2 mutant 339M in the E2 repressor format (C-terminal 249 amino acids) (other) MAGAGRIYYSRFGDEAARFSTTGHYSVRDQDRVYAGVSSTSSDFRDRPDGVWVASEGPEGDPAGKEAEPAQPVSSLLGSPACGPIRAGLGWVRDGPRSHPYNFPAGSGGSILRSSSTPVQGTVPVDLASRQEEEEQSPDSTEEEPVTLPRRTTNDGFHLLKAGGSCFALISGTANQVMCYRFRVKKNHRHRYENCTTTWFTVADNGAERQGQAQILITFGSPSQRQDFLKHVPLPPGMNISGFTASLDF , I see its Repression as % decrease in trans-activation by E2 listed as 76.2
